FYI, the data here is from paper PMC6522510.

Test system: MV4-11
Design: species or system AML cell lines (8); Primary HTS, single concentration about 10 uM, Cell Titer Glo viability; log10 luminescence, per cent inhibition relative to cycloheximide control
Settings: 72 h, relative to cycloheximide control, log10 luminescence; inhibitor
Readings of MV4-11 %inh for the listed molecules

>  <Molecule>
CO[C@H]1O[C@@H]2O[C@@]3(C)CC[C@H]4[C@H](C)CC[C@@H]([C@H]1C)[C@@]24OO3

>  <MV4-11 %inh [%]>
9.901

$$$$
>  <Molecule>
C[C@H](CCC(=O)O)[C@H]1CC[C@H]2[C@@H]3CC[C@@H]4C[C@H](O)CC[C@]4(C)[C@H]3CC[C@]12C

>  <MV4-11 %inh [%]>
1.619

$$$$
>  <Molecule>
O=C1NC(=N[C@H](CO)c2ccccc2)S/C1=C\c1ccc2ncccc2c1

>  <MV4-11 %inh [%]>
3.175

$$$$
>  <Molecule>
CCOc1nccc2c1nc(-c1nonc1N)n2CC

>  <MV4-11 %inh [%]>
-0.5042

$$$$
>  <Molecule>
O=S(=O)(CCNCc1ccc(-c2ccc3ncnc(Nc4ccc(OCc5cccc(F)c5)c(Cl)c4)c3c2)o1)c1ccccc1

>  <MV4-11 %inh [%]>
-1.134

$$$$
>  <Molecule>
Fc1ccc(-c2ncn(C3CCNCC3)c2-c2ccnc(Oc3ccc(Oc4ccccc4)cc3)n2)cc1

>  <MV4-11 %inh [%]>
29.08

$$$$
>  <Molecule>
Cc1cc(O)cc(C)c1/C=C/c1cncc(-c2nn[nH]n2)c1

>  <MV4-11 %inh [%]>
-3.299

$$$$
>  <Molecule>
CCn1c(=O)c(Oc2ccc(F)cc2F)cc2cnc(NC3CCOCC3)nc21

>  <MV4-11 %inh [%]>
2.556

$$$$
>  <Molecule>
C=CC1=C(C(=O)O)N2C(=O)[C@@H](NC(=O)/C(=N\OCC(=O)O)c3csc(N)n3)[C@H]2SC1

>  <MV4-11 %inh [%]>
-3.36

$$$$
>  <Molecule>
NS(=O)(=O)c1ccc(-c2ccc3c(NC(=O)C4CC4)n[nH]c3c2)cc1

>  <MV4-11 %inh [%]>
-0.6023

$$$$
>  <Molecule>
NC(N)=NCCS[C@@H](CC(=O)O)C(=O)O

>  <MV4-11 %inh [%]>
3.627

$$$$
>  <Molecule>
NCc1ccc(-n2c(-c3nonc3N)nc3cnccc32)cc1

>  <MV4-11 %inh [%]>
62.53

$$$$
>  <Molecule>
CCOC(=O)C1=C[C@@H](OC(CC)CC)[C@H](NC(C)=O)[C@@H](N)C1 [SJ000555712-1, OSELTAMIVIR PHOSPHATE]

>  <MV4-11 %inh [%]>
-1.699

$$$$
>  <Molecule>
CC(=O)CCCCn1c(=O)c2c(ncn2C)n(C)c1=O

>  <MV4-11 %inh [%]>
4.085

$$$$
>  <Molecule>
Cn1cc(C2=C(c3cn(CCCCCO)c4ccccc34)C(=O)NC2=O)c2ccccc21

>  <MV4-11 %inh [%]>
-1.111

$$$$
>  <Molecule>
COc1cc(N2CCN(C(C)C)CC2)ccc1Nc1nc(Nc2cccc(F)c2C(=O)O)c2cc[nH]c2n1

>  <MV4-11 %inh [%]>
-1.676

$$$$

* * *

Readings of EC50 for the listed compounds
System: CHRF288-11
Assay: Secondary dose-response HTS, Cell Titer Glo
Assay type: cell-based, human
Conditions: Homo sapiens, HTS; secondary high-throughput screen; CHRF288-11; read-out: average effective concentration, CHRF288-11

>  <Compound>
C=C1C(=O)O[C@H]2[C@H]1CC/C(C)=C/CC[C@@]1(C)O[C@@H]21 [PARTHENOLIDE]

>  <System>
CHRF288-11

>  <Unit Abbreviation>
nM

>  <Value Comparator>
=

>  <EC50>
1600

$$$$
>  <Compound>
O=c1[nH]c(=O)n([C@H]2C[C@H](O)[C@@H](CO)O2)cc1F

>  <System>
CHRF288-11

>  <Unit Abbreviation>
nM

>  <Value Comparator>
=

>  <EC50>
67

$$$$
>  <Compound>
Cc1cnc(NC(=O)Nc2cc(Br)c(C)cc2OC[C@@H]2CNCCO2)cn1

>  <System>
CHRF288-11

>  <Unit Abbreviation>
nM

>  <Value Comparator>
=

>  <EC50>
2100

$$$$
>  <Compound>
Cc1nc2ccc(CN(C)c3ccc(C(=O)N[C@@H](CCC(=O)O)C(=O)O)s3)cc2c(=O)[nH]1

>  <System>
CHRF288-11

>  <Unit Abbreviation>
nM

>  <Value Comparator>
=

>  <EC50>
95

$$$$
>  <Compound>
CC[C@@H]1C(=O)N(C)c2cnc(Nc3ccc(C(=O)N[C@H]4CC[C@H](N5CCN(CC6CC6)CC5)CC4)cc3OC)nc2N1C(C)C [Volasertib, reference compound]

>  <System>
CHRF288-11

>  <Unit Abbreviation>
nM

>  <Value Comparator>
=

>  <EC50>
3200

$$$$
>  <Compound>
O=C(c1cc(Cc2n[nH]c(=O)c3ccccc23)ccc1F)N1CCN(C(=O)C2CC2)CC1

>  <System>
CHRF288-11

>  <Unit Abbreviation>
nM

>  <Value Comparator>
>

>  <EC50>
10000

$$$$
>  <Compound>
COc1ncc(-c2ccc3nccc(-c4ccnnc4)c3c2)cc1NS(=O)(=O)c1ccc(F)cc1F

>  <System>
CHRF288-11

>  <Unit Abbreviation>
nM

>  <Value Comparator>
=

>  <EC50>
1300

$$$$
>  <Compound>
COc1cc(NCc2ccc3nc(N)nc(N)c3c2C)cc(OC)c1OC [TRIMETREXATE]

>  <System>
CHRF288-11

>  <Unit Abbreviation>
nM

>  <Value Comparator>
=

>  <EC50>
7600

$$$$
>  <Compound>
COc1cccc2c1C(=O)c1c(O)c3c(c(O)c1C2=O)C[C@@](O)(C(=O)CO)C[C@@H]3O[C@H]1C[C@H](N)[C@H](O)[C@H](C)O1

>  <System>
CHRF288-11

>  <Unit Abbreviation>
nM

>  <Value Comparator>
=

>  <EC50>
130

$$$$
>  <Compound>
CN[C@@H](C)C(=O)N[C@H](C(=O)N1CCC[C@H]1c1nc(C(=O)c2ccc(F)cc2)cs1)C1CCCCC1

>  <System>
CHRF288-11

>  <Unit Abbreviation>
nM

>  <Value Comparator>
=

>  <EC50>
8500

$$$$
>  <Compound>
O=C(/C=C/c1cccnc1)NCCCCC1CCN(C(=O)c2ccccc2)CC1

>  <System>
CHRF288-11

>  <Unit Abbreviation>
nM

>  <Value Comparator>
=

>  <EC50>
12

$$$$
>  <Compound>
CC(C)C[C@H](NC(=O)CNC(=O)c1cc(Cl)ccc1Cl)B(O)O

>  <System>
CHRF288-11

>  <Unit Abbreviation>
nM

>  <Value Comparator>
=

>  <EC50>
10

$$$$
>  <Compound>
O=C(/C=C/c1ccc(CN(CCO)CCc2c[nH]c3ccccc23)cc1)NO

>  <System>
CHRF288-11

>  <Unit Abbreviation>
nM

>  <Value Comparator>
=

>  <EC50>
1

$$$$
>  <Compound>
CC(C)C[C@H](NC(=O)[C@@H](NC(=O)c1cccc(-c2ccccc2)n1)[C@@H](C)O)B(O)O

>  <System>
CHRF288-11

>  <Unit Abbreviation>
nM

>  <Value Comparator>
=

>  <EC50>
2.7

$$$$
>  <Compound>
Cc1nc(Nc2ncc(C(=O)Nc3c(C)cccc3Cl)s2)cc(N2CCN(CCO)CC2)n1

>  <System>
CHRF288-11

>  <Unit Abbreviation>
nM

>  <Value Comparator>
=

>  <EC50>
8400

$$$$
>  <Compound>
CC[C@]1(O)C[C@H]2CN(CCc3c([nH]c4ccccc34)[C@@](C(=O)OC)(c3cc4c(cc3OC)N(C=O)[C@H]3[C@@](O)(C(=O)OC)[C@H](OC(C)=O)[C@]5(CC)C=CCN6CC[C@]43[C@@H]65)C2)C1

>  <System>
CHRF288-11

>  <Unit Abbreviation>
nM

>  <Value Comparator>
=

>  <EC50>
390

$$$$
>  <Compound>
Cc1cc(C2CCCCC2)n(O)c(=O)c1

>  <System>
CHRF288-11

>  <Unit Abbreviation>
nM

>  <Value Comparator>
=

>  <EC50>
7900

$$$$
>  <Compound>
C=CCNC1=C2C[C@@H](C)C[C@H](OC)[C@H](O)[C@@H](C)/C=C(\C)[C@H](OC(N)=O)[C@@H](OC)/C=C\C=C(/C)C(=O)NC(=CC1=O)C2=O

>  <System>
CHRF288-11

>  <Unit Abbreviation>
nM

>  <Value Comparator>
=

>  <EC50>
1300

$$$$
>  <Compound>
CN(Cc1cnc2nc(N)nc(N)c2n1)c1ccc(C(=O)N[C@@H](CCC(=O)O)C(=O)O)cc1 [METHOTREXATE]

>  <System>
CHRF288-11

>  <Unit Abbreviation>
nM

>  <Value Comparator>
=

>  <EC50>
1

$$$$
>  <Compound>
CC1(COc2ccc3c(c2)ncn3-c2ccc3cccc(N4CCC(N)CC4)c3n2)COC1

>  <System>
CHRF288-11

>  <Unit Abbreviation>
nM

>  <Value Comparator>
=

>  <EC50>
770

$$$$
>  <Compound>
CCC(C)(C)C(=O)O[C@H]1C[C@@H](C)C=C2C=C[C@H](C)[C@H](CC[C@@H]3C[C@@H](O)CC(=O)O3)[C@H]21

>  <System>
CHRF288-11

>  <Unit Abbreviation>
nM

>  <Value Comparator>
=

>  <EC50>
4100

$$$$
